SYSTEM NAME: T1, 4H797-bH
T1 chain: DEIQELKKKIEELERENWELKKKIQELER
RUN DESCRIPTION: two-hybrid library CCNG1;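 note: natural log of median RNA to DNA barcode read ratio; higher means stronger binding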
QUANTITY MEASURED: interaction score
// response body must contain only the number

{"BINDER": "DKIQELKKENEELERKIWELKKEIQELER [4H2729-bH]", "QUANTITY MEASURED": "interaction score", "MEASURED NUMBER": -0.381}

Qu. What measured interaction score goes with DEIQELKKENEELKRKNWELEKEIQELKR [4H754-bH] ?
Ans. -0.0415

Qu. Fill in: interaction score of DENQELEKKIEELKRENWELKKEIQELER [4H1369-bH] is ___
Ans. -0.464

Qu. What value of interaction score has been recorded for this entry: DENQELKKKIEELERKNWELEKKIQELER [4H1845-bH]
Ans. 0.175
